Biological target: Gamma-secretase (Homo sapiens) (UniProt Q96BI3+Q9NZ42+Q8WW43+P49768+Q92542+P49810)
Test: Inhibition of gamma-secretase in HEK293 cells co-overexpressing APP Swedish mutant assessed as inhibition of amyloid beta 40 production at 1 uM by luciferase reporter gene assay relative to DAPT
Type: cell-based
Conditions: values are per cent of control
Lab note: cut-off is 90%. Strictly less in residual activity is Criterion met. Exactly 90% or more is Criterion not met.

CCC(Cc1ccc(OC)c(C(=O)NCc2ccc(C(F)(F)F)cc2)c1)C(=O)O (centres undefined): Criterion met
CCC(Cc1ccc(F)c(C(=O)NCc2ccc(C(F)(F)F)cc2)c1)C(=O)O (centres undefined): Criterion met
CCC(Cc1ccc(OC)c(CNC(=O)c2ccc(OCC(F)(F)F)cc2)c1)C(=O)O (centres undefined): Criterion not met
COc1ccc(CCC(=O)O)cc1CNC(=O)c1ccc(C(F)(F)F)cc1: Criterion not met
COc1ccc(CC(C)C(=O)O)cc1CNC(=O)c1ccc(C(F)(F)F)cc1 (centres undefined): Criterion not met

# TODO verify residual activity < 90% strictly for this compound: CCC(Cc1ccc(OC)c(CNC(=O)c2ccc(Oc3ccccc3)cc2)c1)C(=O)O (centres undefined)
Criterion not met

----------
Target: Gamma-secretase (Homo sapiens) (UniProt Q96BI3+Q9NZ42+Q8WW43+P49768+Q92542+P49810)
Assay: Inhibition of gamma-secretase in HEK293 cells co-overexpressing APP Swedish mutant assessed as inhibition of amyloid beta 40 production at 1 uM by luciferase reporter gene assay relative to DAPT
Assay type: cell-based
Settings: values are per cent of control
measured_quantity: residual activity (%)
Quick reminder: number only, in %, skip the unit.

Examples with answers:
CCC(Cc1ccc(F)c(C(=O)NCc2ccc(Oc3ccccc3)cc2)c1)C(=O)O (stereo not drawn): 89.8
CCC(Cc1ccc(F)c(C(=O)NCc2ccc(OC(F)(F)F)cc2)c1)C(=O)O (stereo not drawn): 90.6

Please look at the following molecule next.
Quick check: residual activity of CCC(Cc1ccc(OC)c(CNC(=O)c2ccc(C(F)(F)F)cc2)c1)C(=O)O (stereo not drawn) ?
89.5

Taken from ChEMBL document CHEMBL1221235.
